Just for reference, patent US20230002757A1 is where these values come from.

Would you mind telling me the reported OD450 at 2 µg/mL of each entry?
Target: T1, PD-1 protein (human, UniProt Q15116 25-167, limits assumed)
T1 construct: also called human PD-1
T1 sequence (Q15116 25-167 limits assumed): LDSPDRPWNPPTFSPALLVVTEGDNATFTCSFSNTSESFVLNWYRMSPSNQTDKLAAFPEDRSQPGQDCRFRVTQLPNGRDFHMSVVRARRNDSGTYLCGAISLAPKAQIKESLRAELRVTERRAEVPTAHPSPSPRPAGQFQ
Experiment: ELISA, PD-1 coated
Experimental: 2 μg/ml of PD-1 protein is coated on 96-well plates overnight for ELISA binding assay. Recombinant VHH-FC proteins are added to the wells and allowed to stand for a period of time, then 1 μg/ml of HRP-conjugated anti-FC antibody is added as detection antibody and the assay reagents are added. The absorbance is read at 450 nm. Binding of nivolumab serves as a positive control and plates coated with BSA are used as the negative control group.
Give bare numbers, in OD450.

[[record]]
binder = "504#SS29 (Fc fusion, not shown: a dimerising Fc or GST; small tags and cut ends, VHH-FC construct from HEK293 cells) VHH: QVQLVESGGGLVQAGGSLRLSCAASGRTFSGYTMGWFRRAPGKERELIANILWNSARRYYADSVKGRFTISRDNAMNTVDLQMNSLKPEDTAVYYCAVLVDSTYRFSNQGTQVTVSS"
metric = "OD450 at 2 µg/mL"
numeric_readout = 0.35

[[record]]
binder = "504#SS2 (Fc fusion, VHH-FC construct from HEK293 cells; not shown: The (G4S)3 linker leading to it is left out with it) VHH: EVQVVESGGGLVKTGDSLRLSCAASGGTISGYEMGWFRQAPGKEREFVAGISRNGRSTGYSDSAKDRFTISRDNAKNTVYLQMNSLKPEDTAVYYCAAGLKADYGDSYVDTSTRNYNYWGQGTQVTVSS"
metric = "OD450 at 2 µg/mL"
numeric_readout = 3.1

[[record]]
binder = "504#SS22 (Fc fusion, not shown: a dimerising Fc or GST; small tags and cut ends, VHH-FC construct from HEK293 cells) VHH: QVQLVETGGGLVQAGGSLRLSCAASGRTFSSYAMGWFRQAPGKERDFVAGISGSGGNTPYAESVKGRFTISRDNAKNTVALQMNSLKPEDTAVYYCAAKFTSSSFYYRSPREYSSWGQGTQVTVSS"
metric = "OD450 at 2 µg/mL"
numeric_readout = 0.04


QUERY: # lookup: OD450 at 2 µg/mL of 504#SS1 (Fc fusion, VHH-FC construct from HEK293 cells; not shown: The (G4S)3 linker leading to it is left out with it) VHH: QVQLVESGGGLVQAGGSLRLSCAASGLTFSDFAMGWFRQAPGKEREFVAAISWSGGQTYNVESAKGRFTISRDNAKNTVYLQMNKLKPDDTAVYYCAASTMVVTTVAADYKYWGQGTQVTVSS
RESULT: 0.04
